tested on: HL-60(TB) leukemia; test: NCI-60 one-dose screen, 48 h; details: 10 µM unless noted
Compounds without any hit were thinned out: in the full panel of roughly 83,000, 20% have a hit. Active and inactive are the calls of the source. How the source made its calls: active means growth percent below 10; inactive means the rest.
Hi there, use one of these labels in your reply, thanks! active, inactive

For orientation, consider the following solved cases.
>>> group_label("N#Cc1c(NC(=O)c2cccc(C(F)(F)F)c2)sc2c1CCC(O)=C2")
"inactive"
>>> group_label("CNCc1cccc2c1OCCCCCC[C@@](C)(O)CC1(CC1)S(=O)(=O)c1ccc(cc1)-c1cnc(N)c(n1)C(=O)N2")
"active"
>>> group_label("O=C(COc1ccc(NC(=O)Nc2ccc(Cl)c(Cl)c2)cc1)N=Nc1c(O)[nH]c2ccc([N+](=O)[O-])cc12")
"inactive"
>>> group_label("Cn1cc(-c2cc3nc(-c4cn(C)c5ncccc45)cc(N)n3n2)c2cc(F)ccc21")
"active"
>>> group_label("O=C(/C=C/c1ccc(Br)cc1)c1nc2ccccc2n1Cc1ccc(Br)cc1")
"active"

Hello, I am checking results. What call was entered for O=C(N=Nc1c(O)[nH]c2ccc(Cl)cc12)c1ccc2nc(-c3ccc(Cl)cc3)[nH]c2c1 ?
inactive

Hi team, can someone confirm the assay call for Cc1ccn2c(C(=O)c3ccccc3)cc(-c3cc(-c4ccc(N(C)C)cc4)c(C#N)c(N)n3)c2c1 ?
inactive

Check the results log: what was the call for CN1CCN(C(=O)CCN(C(=O)Oc2cc3c(c4ccccc24)[C@H](CCl)CN3C(=O)c2cc3cc(OCCCN4CCC4)ccc3[nH]2)[C@H]2CCSSC2)CC1 ?
active

What is the recorded call for this molecule in the test? O=C1Nc2cc(Cl)ccc2/C1=C/c1ccc(OCc2ccc(Br)cc2F)cc1
inactive

Tell me the recorded outcome of this test for CC(=O)NNc1ccc2nnc(-c3ccc(Br)cc3)n2n1 .
inactive

What outcome does the record of this test show for O=C1Nc2ccc(Cl)cc2/C1=C/c1ccc(OCc2ccc(Br)cc2F)cc1 ?
inactive

Query: recorded result category for O=C(/C=C/c1ccc(F)cc1)c1nc2ccccc2n1Cc1ccc(F)cc1 in this test
active

# fetch the recorded call for CCOc1ccc(Nc2nc3ccccc3nc2Nc2ccc(OCC)cc2)cc1 here
inactive

// return assay outcome for Cc1ccc2nc(COc3ccc(C(=O)NNC(=S)NC(=O)c4ccccc4)cc3)[nH]c2c1
inactive

Test call, this molecule: O=C(NO)c1ccc(CNC(=O)[C@H]2Cc3c([nH]c4ccccc34)[C@H](c3ccc(Cl)cc3)N2)cc1
active

Hi, sorry to bother you, what did the test record for CCCCSc1nc(Nc2ccc(S(N)(=O)=O)cc2)c(C#N)c(-c2ccc(Cl)cc2)n1 ?
inactive

Would you mind telling me which call this test gave O=C(CNc1nc(-c2ccccc2)cs1)Nc1cccc([N+](=O)[O-])c1 ?
active

Dear colleague, could you share the recorded outcome for C=C1CCC2C3(C)COC(c4cc(F)cc(F)c4)OC3CCC2(C)C1C/C=C1/C(=O)OCC1O (centres undefined) when you have a moment?
active

How was COc1ccc(C2OC[C@@]3(C)C4CC[C@]5(C)C(CC=C6C7CC(C)(C)CC[C@]7(C(=O)O)CC[C@]65C)[C@@]4(C)C[C@@H](O)[C@@H]3O2)cc1 (some centres undefined) classified in this test?
inactive
